In this section we review reported inhibition values for a set of molecules.
tgt: Solute carrier family 2, facilitated glucose transporter member 1 (Homo sapiens) (UniProt P11166)
Sequence (P11166 whole entry): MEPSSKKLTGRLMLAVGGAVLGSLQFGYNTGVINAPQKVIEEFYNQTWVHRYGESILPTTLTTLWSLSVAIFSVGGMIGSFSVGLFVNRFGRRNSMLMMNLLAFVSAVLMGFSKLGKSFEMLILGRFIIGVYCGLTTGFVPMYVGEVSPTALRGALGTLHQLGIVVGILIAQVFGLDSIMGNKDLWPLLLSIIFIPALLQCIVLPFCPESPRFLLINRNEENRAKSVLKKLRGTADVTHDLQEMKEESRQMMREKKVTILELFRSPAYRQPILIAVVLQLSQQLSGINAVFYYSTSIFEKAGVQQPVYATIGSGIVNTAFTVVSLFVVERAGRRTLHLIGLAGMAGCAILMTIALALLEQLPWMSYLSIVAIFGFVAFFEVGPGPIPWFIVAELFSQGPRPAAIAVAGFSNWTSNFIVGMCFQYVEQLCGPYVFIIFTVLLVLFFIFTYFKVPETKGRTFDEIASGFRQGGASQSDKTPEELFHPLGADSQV
assay.procedure: ST_JUDE_LEISH: Cytotoxicity at 2uM final concentration against transgenic Leishmania Mexicana promastigotes LmGLUT1 that are glucose transport deficient and complemented with the human glucose transporter GLUT1. Activity is measured by DNA content using SYBR green in vitro
Type: functional
Express the result in % but write the number alone.

Recorded inhibition, per entry:
Query: Give inhibition for c1cc(CN2CCN(c3ccncc3)CC2)cc(-c2ccc(-c3nc4ccccc4[nH]3)s2)c1
Reply: 3.45

Query: Give inhibition for N=C(N)NN=Cc1ccc2ccc3ccccc3c2c1
Reply: 5.52

Query: Give inhibition for Nc1cccc(CNCc2ccc(-c3cccc(-c4nc5ccccc5[nH]4)c3)cc2)c1
Reply: 1.2

Query: Give inhibition for CCCC[C@@H](C(=O)NCc1ccccc1C(F)(F)F)N1C(=O)CCC1C(=O)Nc1ccc([N+](=O)[O-])cc1 (stereo not given in full)
Reply: 1.1

Query: Give inhibition for CCCCCCn1c(Sc2ccc(C#N)c([N+](=O)[O-])c2)nnc1-c1ccccc1
Reply: 8.64

Query: Give inhibition for COc1ccc2nccc([C@@H](O)CN3CCC(NCc4cnc5snnc5c4)C(F)C3)c2c1 (stereo not given in full)
Reply: 0.43

New cases:
Query: Give inhibition for CCCCN(CCCC)Cc1cc(Nc2ccnc3cc(Cl)ccc23)ccc1O
Reply: 4.85

Query: Give inhibition for CC1(C)NC(N)=NC(=N)N1OCCCCOc1ccccc1
Reply: -2.95

Query: Give inhibition for O=C(Nc1cccc(C(F)(F)F)c1)c1ccc(S(=O)(=O)NC2CCN(CC3CCCCC3)CC2)cc1
Reply: 1.83

Query: Give inhibition for CCCC1N=C(N)N=C(N)N1c1ccc(C)c(C)c1 (stereo not given)
Reply: -0.66
